Below, each entry is listed with its recorded composite z-score.
- SYSTEM_NAME: Fibroblast growth factor 2 (Homo sapiens) (UniProt P09038)
- Sequence (P09038 whole entry, looked up): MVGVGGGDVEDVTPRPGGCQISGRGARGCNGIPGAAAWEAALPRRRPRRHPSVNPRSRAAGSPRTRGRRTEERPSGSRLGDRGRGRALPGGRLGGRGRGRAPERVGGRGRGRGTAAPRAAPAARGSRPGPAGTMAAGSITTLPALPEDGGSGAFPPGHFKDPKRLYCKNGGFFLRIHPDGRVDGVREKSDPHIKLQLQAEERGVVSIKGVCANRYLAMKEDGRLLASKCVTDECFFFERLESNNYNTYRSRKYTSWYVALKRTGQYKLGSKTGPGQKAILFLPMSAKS
- MEASUREMENT_DESCRIPTION: FGF2 binders on small-molecule microarrays, primary screen, biochemical, small-molecule microarray, 635/667 nm fluorescence (AID 1133)
- CONDITION_NOTES: small-molecule microarray binding, FGF2, fluorescence 635/667; higher = more signal

Example entries and their recorded answers appear below.
| COMPOUND | VALUE_MEASURED |
| --- | --- |
| COC(=O)[C@@]1(Cc2ccc(F)cc2)[C@H]2c3cc(C(=O)N(C)C)n(Cc4cc(F)cc5c4OCOC5)c3C[C@H]2CN1C(=O)c1ccccc1 | -0.0284 |
| CCCCCCCCCCC(O)C1C=CC2C(=O)N(C)C(=O)C2N1NC(=O)OC(C)(C)C (centres undefined) | -0.531 |
| Cc1ccc(S[C@]2(C(=O)O)CC(=O)N(Cc3ccccc3Cl)[C@@H]2c2ccc(CO)cc2I)cc1 | 0.261 |
| Cn1cccc1C(O)C1C=CC2C(=O)NC(=O)C2N1Nc1ccc(Cl)cc1Cl (centres undefined) | 0.0937 |
| COc1ccc([Si](C)(C)[C@@H]2[C@@H](CCn3cc([C@H](O)c4ccccc4)nn3)O[C@]3(C(=O)N(Cc4ccc(N5CCC5=O)cc4)c4ccccc43)[C@H]2C)cc1 | 0.749 |
| COc1ccc(CN(C2=CC[C@@]3(C(N)=O)C(=O)C(Cl)=C(Cl)C(=O)[C@@]3(C#N)C2)S(=O)(=O)c2ccc(Br)cc2)cc1 | -0.537 |
| CCCCN1CC=CC23O[C@@H]4/C=C\CCC(C)OC(=O)C4[C@H]2C(=O)N(C(CO)C(C)C)[C@@H]3C1=O (some centres undefined) | 0.149 |
| C=C(/C(=C/C[C@@H](OC(C)=O)c1cccc(OCCO)c1)c1cc(C(=O)OC)ccc1OC)C(C)C | 1.39 |
| COc1cc(OC)c(C(O)C2C=CC3C(=O)N(C)C(=O)C3N2NC(=O)OC(C)(C)C)cc1Br (centres undefined) | 0.128 |
| O=C(N1CCCCC1)[C@@]1(CCS(=O)(=O)c2ccccc2)COC(c2ccc(OCCCO)cc2)=N1 | 1.52 |

Give recorded composite z-score. `COc1ccc(-c2cc3c(c(CCc4ccccc4)n2)[Si](C(C)C)(C(C)C)OC3)cn1`
-0.025

Give recorded composite z-score. `COc1ccc(CCNC(=O)[C@@H]2c3ccccc3C(=O)N(Cc3cc(C(F)(F)F)cc(C(F)(F)F)c3)[C@H]2c2ccc(CO)cc2)cc1`
-0.258

Give recorded composite z-score. `O=c1n(-c2ccccc2)c(=O)n2n1CC(COc1ccccc1)=C([C@H](O)CCc1ccccc1)[C@@H]2CO`
1.14

Give recorded composite z-score. `CCOC(=O)C1=C[C@@H](c2ccccc2)N(S(=O)(=O)c2ccc(C)cc2)[C@H]1c1ccccc1Cl`
0.414

Give recorded composite z-score. C=C(C)[C@@H]1CC=C(C(O)C2C=CC3C(=O)N(c4ccccc4)C(=O)C3N2Nc2ccccc2F)CC1 (some centres undefined)
0.0538

Give recorded composite z-score. `COC(=O)[C@@]1(Cc2ccc(F)cc2)[C@H]2c3cc(C(=O)N4CCCC4)n(CCN4CNCC4=O)c3C[C@H]2CN1C(=O)c1ccccc1`
-0.841

Give recorded composite z-score. `C[N+](C)(C)CCCC[C@@H]1NC(=O)[C@H]2C[C@@H](C(=O)NCCCCCCN)[C@@H](c3ccc(O)cc3)N2C1=O`
0.299

###

- SYSTEM_NAME: Calmodulin-1 (Homo sapiens)
- MEASUREMENT_DESCRIPTION: calcium-bound CALM1 binders on microarrays, profiling panel, artefact control for SMM control-protein annotation, biochemical, small-molecule microarray, Cy5-labelled CALM1, plus calcium (AID 1112);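 further: score merges spot fluorescence with signal to noise from triplicate slides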
- CONDITION_NOTES: Cy5-CALM1 binding fluorescence, higher = more signal
ENDPOINT_LABEL: composite z-score
Give your answer as a number; write no unit.

Example entries and their recorded answers appear below.
| MOLECULE | composite z-score |
| --- | --- |
| COCCCNC(=O)[C@@]1(Cc2ccccc2N=[N+]=[N-])COC(c2ccc(OCCCO)cc2)=N1 | 0.414 |
| COC(=O)[C@@]1(Cc2ccc(OC)cc2)[C@H]2c3cc(C(=O)N(C)C)n(Cc4ccc(Cl)c(C(F)(F)F)c4)c3C[C@H]2CN1C(=O)c1ccccc1 | 1.12 |
| COC(=O)[C@@]1(Cc2ccccc2N=[N+]=[N-])N=C(c2ccc(OCCCO)cc2)O[C@H]1c1ccccc1N=[N+]=[N-] | -0.62 |

Please examine the following record next.
Give recorded composite z-score. `C[C@@H]1ON(c2ccc(C(=O)OC(C)(C)C)cc2)[C@H](c2ccc(O)cc2)[C@H]1C(=O)N1C(=O)OC[C@H]1Cc1ccccc1`
0.307

###

- MEASUREMENT_DESCRIPTION: small-molecule microarray binders of probe aDKK1, primary screen, biochemical, biotinylated probe, 635/667 nm fluorescence (AID 1099);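 further: score merges 667nm spot fluorescence with signal to noise across triplicate slides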
- CONDITION_NOTES: higher = more signal
The label depends only on composite z-score: met if it is at least -0.1, not met if it is smaller.

| MOLECULE | ASSIGNED_LABEL |
| --- | --- |
| O=C(CS)NCCCCCCNC(=O)[C@H]1C[C@H]2C(=O)N[C@@H](Cc3ccccc3)C(=O)N2[C@H]1c1ccc(O)cc1 | not met |
| COCCCNC(=O)[C@]1(CCS(=O)(=O)c2ccccc2)N=C(c2ccc(OCCCO)cc2)O[C@@H]1c1ccccc1CN=[N+]=[N-] | met |
| C=CCOC(=O)[C@H]1[C@@H]2C(=O)O[C@@H](c3ccccc3)[C@@H](c3ccccc3)N2[C@@H](c2ccc(OCCOC(=O)[C@H]3C[C@H]4C(=O)N[C@@H](CC(C)C)C(=O)N4[C@H]3c3cccc(OCCO)c3)cc2)[C@]12C(=O)Nc1ccc(I)cc12 | not met |
| C=CCC(OC(C)=O)[C@@H]1[C@@H](N(Cc2ccc(-c3ccccc3)cc2)C(=O)Cc2ccc(F)cc2)c2cc(OCCCO)ccc2N1C(=O)Cc1ccc(OC)cc1 (stereo partly specified) | not met |

hey, is composite z-score for this one >= -0.1? `CCOC(=O)C1=CC[C@@H](c2cccc(Cl)c2)N(S(=O)(=O)c2ccc(C)cc2)C1`
met

hey, is composite z-score for this one >= -0.1? `COCCOC(=O)N1C(=O)[C@@]2(c3cc(C#CC4=CCCCC4)ccc31)[C@H](c1ccccc1OCCO)N1[C@H](c3ccccc3)[C@H](c3ccccc3)OC(=O)[C@H]1[C@@H]2C(=O)Nc1nc2ccccc2s1`
not met

###

- MEASUREMENT_DESCRIPTION: basal S. cerevisiae growth modulation, no modifier, primary screen, OD600, strain BY4716, 24 h, basal condition (AID 1173)
- CONDITION_NOTES: OD600, 24 h, higher = more signal, called active from +8 up or from −8 down
ENDPOINT_LABEL: z-score
Give your answer as a number; write no unit.

Example entries and their recorded answers appear below.
| MOLECULE | VALUE_MEASURED |
| --- | --- |
| COc1cc(OC)c(C(O)C2C=CC3C(=O)N(C)C(=O)C3N2NC(=O)OC(C)(C)C)cc1Br (stereo unspecified) | -5.3 |
| O=C1N(Cc2ccccc2)Cc2ccccc2[C@@H]2OC(c3ccc(OCCCO)cc3)=N[C@]12CCS(=O)(=O)c1ccccc1 | 0.691 |
| C=CCOC(=O)[C@H]1[C@@H]2C(=O)O[C@@H](c3ccccc3)[C@@H](c3ccccc3)N2[C@@H](c2ccc(OCCOC(=O)[C@@H]3C[C@@H]4C(=O)N[C@@H](CCCCNC(C)=O)C(=O)N4[C@@H]3c3ccc(O)cc3)cc2)[C@]12C(=O)Nc1ccc(I)cc12 | 1.46 |
| COC(=O)c1c(CC[C@@H](CO)NC(=O)N[C@H](Cn2cc(C3(O)CCCCC3)nn2)C(C)C)oc(C(C)=O)c1C(=O)OC | -3.03 |
| [N-]=[N+]=NCc1ccccc1C[C@@]1(C(=O)N2CCOCC2)N=C(c2ccc(OCCCO)cc2)O[C@@H]1c1ccccc1 | -2.93 |

Please examine the following record next.
Give recorded z-score. `Cc1ccc(S[C@]2(C(=O)NCC(F)(F)F)CC(=O)N(Cc3ccccc3)[C@@H]2c2ccc(CO)cc2I)cc1`
-3.93

###

- SYSTEM_NAME: Calmodulin-1 (Homo sapiens) (UniProt P0DP23)
- MEASUREMENT_DESCRIPTION: calcium-bound CALM1 binders on microarrays, profiling panel, artefact control for SMM control-protein annotation, biochemical, small-molecule microarray, Cy5-labelled CALM1, plus calcium (AID 1112);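 further: score merges spot fluorescence with signal to noise from triplicate slides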
- CONDITION_NOTES: Cy5-CALM1 binding fluorescence, higher = more signal
ENDPOINT_LABEL: composite z-score
Give your answer as a number; write no unit.

Example entries and their recorded answers appear below.
| MOLECULE | composite z-score |
| --- | --- |
| COC(=O)C(CC#Cc1ccc2c(c1)[C@]1(C(=O)N2)[C@H](C(=O)N2CCN(c3ncccn3)CC2)[C@H]2C(=O)O[C@H](c3ccccc3)[C@H](c3ccccc3)N2[C@@H]1c1ccc(OCCO)cc1)C(=O)OC | 0.245 |
| C=CCC(OC(C)=O)[C@@H]1[C@@H](N(Cc2cccc3ccccc23)C(=O)c2cccc3ccccc23)c2cc(OCCCO)ccc2N1C(=O)c1ccc(-c2ccccc2)cc1 (stereo not given in full) | 0.766 |

Give recorded composite z-score. O=C1C2C=CC(C(O)c3ccc(F)cc3)N(n3cnnc3)C2C(=O)N1Cc1ccccc1 (stereo not given)
0.451

Give recorded composite z-score. `O=C1O[C@H](c2ccccc2)[C@H](c2ccccc2)N2[C@H]1[C@@H](C(=O)Nc1nc3ccccc3s1)[C@]1(C(=O)Nc3ccc(C#CC4(O)CCCCCC4)cc31)[C@H]2c1ccccc1OCCO`
-0.243

Give recorded composite z-score. `O=C1c2ccccc2[C@](Cc2ccccc2I)(C(=O)NCC(F)(F)F)[C@H](c2ccc(CO)cc2)N1C1CCCCC1`
0.486

Give recorded composite z-score. N#Cc1ccc(C(O)C2C=CC3C(=O)N(c4ccccc4)C(=O)C3N2Nc2ccccc2)cc1 (stereo not given)
0.492

Give recorded composite z-score. `CN(C)CCCNC(=O)[C@@]1(c2ccc([N+](=O)[O-])cc2)CC(=O)N(CC23CC4CC(CC(C4)C2)C3)[C@@H]1c1ccc(CO)cc1I`
-0.0622

Give recorded composite z-score. `COC(=O)c1nc2oc1CC[C@@H](CO)NC(=O)N(C)Cc1cnnn1C[C@H](Cc1ccccc1)NC2=O`
-0.319

Give recorded composite z-score. C[C@H]1NC(=O)[C@@]23C(=O)N[C@@H](Cc4ccccc4)C2[C@H](C)[C@@]2(C)O[C@H]2C3/C=C/C/C=C\CNC(=O)[C@H](Cc2ccccc2)NC1=O (stereo not given in full)
-0.849

Give recorded composite z-score. `C=CCN1Cc2ccccc2[C@H]2OC(c3ccc(OCCCO)cc3)=N[C@@]2(CC=C)C1=O`
1.43

Give recorded composite z-score. `O[C@@H](Cc1ccccc1)[C@@H](/C=C/C1CC1)N(CC#Cc1ccccc1)Cc1cccc(Cl)c1`
0.352

Give recorded composite z-score. `COc1ccc([Si](C)(C)[C@H]2[C@H](CCO)O[C@@]3(C(=O)N(Cc4cccc(N5C(=O)COc6ccccc65)c4)c4ccccc43)[C@@H]2C)cc1`
0.675

Give recorded composite z-score. `COC(=O)c1c2oc(c1C(=O)OC)C(=O)N(C)Cc1cn(nn1)C[C@H](Cc1ccccc1)NC(=O)N[C@H](CO)CC2`
-0.197

Give recorded composite z-score. C=C(C)C1CCC(C(O)C2C=CC3C(=O)N(C)C(=O)C3N2N2CCCCC2)CC1 (stereo not given)
0.763

Give recorded composite z-score. NC(=O)N1C(=O)C2C(C1=O)C1C=C(CCCO)C2C(c2cccs2)N1Cc1cccc(OC(F)(F)F)c1 (stereo not given)
0.632
